- Measurement Target: HIV-1 envelope glycoprotein (gp120) of virus 7141 (HIV-1)
- Protocol Description: cell-based or functional assay
Here, each record is paired with measured Neutralization IC50 data.
Observed Property: Neutralization IC50 (µg/mL)

INSERT INTO assay_data (binder, quantitative_result) VALUES
  ('3.1.9-1 (antibody, human IgG1, kappa, V domains shown) VH: QVQLLQSGAAVTKPGASVRVSCEASGYNIRDYFIHWWRQAPGQGLQWVGWINPKTGQPNNPRQFQGRVSLTRHASWDFDTFSFYMDLKALRSDDTAVYFCARQRSDYWDFDVWGSGTQVTVSS VL: DIQMTQSPSSLSARVGDTATITCQANGYLNWYQQRRGKAPKLLIYDGSKLERGVPARFSGRRWGQEYNLTINNLQPEDVATYFCQVYEFFGPGTRLDLKR', 4.35),
  ('2.2.7-1 (antibody, human IgG1, kappa, V domains shown) VH: QVHLSQSGAAVTKPGASVRVSCEASGYKIRDHFIHWWRQAPGQGLQWVGWINPKTGQPNNPRQFQGRVSLTRHASWDFDTFSFYMDLKAVRSDDTAIYFCARQRSDYWDFDVWGSGTQVTVSS VL: DIQMTQSPSSLSARVGDRATITCQANGYLNWYQQRRGKAPKLLIYDGSKLERGVPARFSGSRWGQEYTLTISSLQPEDVATYFCQVYEFFGPGTRLDLKR', 1.58),
  ('2.3.7-1 (antibody, human IgG1, kappa, V domains shown) VH: QVHLSQSGAAVTKPGASVRVSCEASGYNIRDYFIHWWRQAPGQGLQWVGWINPKTGQPNNPRQFQGRVSLTRHASWDFDTFSFYMDLKAVRSDDTAIYFCARQRSDYWDFDVWGSGTQVTVSS VL: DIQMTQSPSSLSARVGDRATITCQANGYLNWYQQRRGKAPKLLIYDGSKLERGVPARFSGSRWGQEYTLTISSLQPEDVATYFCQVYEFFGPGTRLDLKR', 5.08),
  ('2.3.17-1 (antibody, human IgG1, kappa, V domains shown) VH: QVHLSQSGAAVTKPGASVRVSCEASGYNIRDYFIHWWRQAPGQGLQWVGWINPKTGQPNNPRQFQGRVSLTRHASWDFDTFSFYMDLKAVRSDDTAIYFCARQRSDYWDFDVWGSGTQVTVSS VL: DIQMTQSPSSLSARVGDTATITCQANGYLNWYQQRRGKAPKLLIYDGSKLERGVPARFSGRRWGQEYHLTINNLQPEDVATYFCQVYEFFGPGTRLDLKR', 31.3),
  ('3.1.13-1 (antibody, human IgG1, kappa, V domains shown) VH: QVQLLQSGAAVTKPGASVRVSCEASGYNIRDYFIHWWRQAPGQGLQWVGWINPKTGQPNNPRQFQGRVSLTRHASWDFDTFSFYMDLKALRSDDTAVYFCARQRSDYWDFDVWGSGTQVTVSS VL: DIQMTQSPSSLSARVGDRATITCQANGYLNWYQQRRGKAPKLLIYDGSKLERGVPARFSGSRWGQEYILTISSLQPEDVATYFCQVYEFFGPGTRLDLKR', 13.2);
